FYI, the data here is from patent US7053234B2.

target: Sigma^70 saturated E. coli RNA Polymerase (Escherichia coli, UniProt P0A8T7+P0A8V2); construct: purchased Epicenter; assay: RNA polymerase inhibition assay (E. coli enzyme); format: biochemical; conditions: Table 2; read-out: RNA-pol IC50 (μM) E. coli
Sequence (P0A8V2 whole entry): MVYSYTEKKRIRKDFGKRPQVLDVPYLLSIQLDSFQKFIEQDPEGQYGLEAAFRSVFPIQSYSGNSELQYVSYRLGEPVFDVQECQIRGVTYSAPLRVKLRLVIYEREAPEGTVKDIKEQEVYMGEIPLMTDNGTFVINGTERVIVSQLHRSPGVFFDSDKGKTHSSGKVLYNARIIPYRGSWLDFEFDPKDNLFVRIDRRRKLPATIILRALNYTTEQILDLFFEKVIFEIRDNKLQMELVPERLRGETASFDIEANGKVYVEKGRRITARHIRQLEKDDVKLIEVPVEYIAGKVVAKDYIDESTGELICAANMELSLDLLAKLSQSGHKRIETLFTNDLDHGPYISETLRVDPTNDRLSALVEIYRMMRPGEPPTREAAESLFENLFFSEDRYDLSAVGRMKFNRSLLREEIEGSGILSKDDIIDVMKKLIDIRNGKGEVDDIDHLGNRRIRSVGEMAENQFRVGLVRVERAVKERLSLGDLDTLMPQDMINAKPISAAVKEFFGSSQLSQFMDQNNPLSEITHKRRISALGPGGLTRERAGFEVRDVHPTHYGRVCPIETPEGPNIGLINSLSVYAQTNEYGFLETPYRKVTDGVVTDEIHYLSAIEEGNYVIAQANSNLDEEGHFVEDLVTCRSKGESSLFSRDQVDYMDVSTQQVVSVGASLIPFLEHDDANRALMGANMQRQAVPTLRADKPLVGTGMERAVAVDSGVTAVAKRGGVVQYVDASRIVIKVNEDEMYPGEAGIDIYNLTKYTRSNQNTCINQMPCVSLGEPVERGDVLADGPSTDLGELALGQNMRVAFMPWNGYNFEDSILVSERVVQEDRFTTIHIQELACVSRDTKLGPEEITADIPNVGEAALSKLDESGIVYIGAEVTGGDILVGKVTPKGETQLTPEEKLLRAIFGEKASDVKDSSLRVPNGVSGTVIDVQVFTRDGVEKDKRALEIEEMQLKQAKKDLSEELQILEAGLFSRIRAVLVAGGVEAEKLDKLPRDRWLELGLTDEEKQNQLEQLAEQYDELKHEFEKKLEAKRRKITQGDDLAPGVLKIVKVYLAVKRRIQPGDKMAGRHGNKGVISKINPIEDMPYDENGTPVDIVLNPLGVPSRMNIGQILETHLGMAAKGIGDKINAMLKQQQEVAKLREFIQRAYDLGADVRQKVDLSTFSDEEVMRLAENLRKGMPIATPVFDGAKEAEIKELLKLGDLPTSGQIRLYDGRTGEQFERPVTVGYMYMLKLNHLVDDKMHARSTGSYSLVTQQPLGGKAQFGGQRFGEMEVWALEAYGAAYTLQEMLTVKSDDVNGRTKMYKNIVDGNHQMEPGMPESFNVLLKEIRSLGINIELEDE
Sequence (P0A8T7 whole entry): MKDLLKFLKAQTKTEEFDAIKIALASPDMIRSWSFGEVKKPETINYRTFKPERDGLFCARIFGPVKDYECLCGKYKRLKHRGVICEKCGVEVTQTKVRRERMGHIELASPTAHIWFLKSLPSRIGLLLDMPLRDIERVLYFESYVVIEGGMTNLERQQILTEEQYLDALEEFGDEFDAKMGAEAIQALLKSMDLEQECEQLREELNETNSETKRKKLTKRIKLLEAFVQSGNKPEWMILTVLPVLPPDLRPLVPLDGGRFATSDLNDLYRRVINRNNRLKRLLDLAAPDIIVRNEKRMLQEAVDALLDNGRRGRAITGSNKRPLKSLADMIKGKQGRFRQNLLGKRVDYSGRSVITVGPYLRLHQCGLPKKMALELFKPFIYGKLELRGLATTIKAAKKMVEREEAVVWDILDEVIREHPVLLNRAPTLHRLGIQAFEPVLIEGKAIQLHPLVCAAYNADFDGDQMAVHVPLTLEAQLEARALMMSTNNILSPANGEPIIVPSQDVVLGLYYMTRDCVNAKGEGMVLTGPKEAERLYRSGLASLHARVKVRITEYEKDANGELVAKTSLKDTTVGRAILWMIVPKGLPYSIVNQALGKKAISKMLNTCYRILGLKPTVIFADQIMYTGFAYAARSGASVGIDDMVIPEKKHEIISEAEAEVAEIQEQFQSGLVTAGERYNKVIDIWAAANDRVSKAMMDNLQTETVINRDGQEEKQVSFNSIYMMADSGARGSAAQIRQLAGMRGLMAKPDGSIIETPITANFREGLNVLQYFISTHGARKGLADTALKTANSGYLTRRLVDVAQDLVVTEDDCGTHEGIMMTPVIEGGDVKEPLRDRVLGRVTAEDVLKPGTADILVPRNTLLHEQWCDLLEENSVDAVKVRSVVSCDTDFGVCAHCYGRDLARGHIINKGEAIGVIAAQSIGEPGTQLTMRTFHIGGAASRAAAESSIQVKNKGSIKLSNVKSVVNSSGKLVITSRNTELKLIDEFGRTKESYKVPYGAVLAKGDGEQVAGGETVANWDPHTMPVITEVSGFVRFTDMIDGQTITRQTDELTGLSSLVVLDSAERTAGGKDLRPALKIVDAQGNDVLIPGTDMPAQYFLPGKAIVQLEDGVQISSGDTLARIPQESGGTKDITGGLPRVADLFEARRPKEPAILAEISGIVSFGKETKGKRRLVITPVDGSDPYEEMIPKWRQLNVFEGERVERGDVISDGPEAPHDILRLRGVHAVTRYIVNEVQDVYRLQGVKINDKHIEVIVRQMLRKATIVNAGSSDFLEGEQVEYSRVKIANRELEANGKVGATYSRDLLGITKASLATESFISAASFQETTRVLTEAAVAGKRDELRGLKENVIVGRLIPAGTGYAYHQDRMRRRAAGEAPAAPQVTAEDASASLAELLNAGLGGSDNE
Sequence (P0A7Z4 whole entry partner): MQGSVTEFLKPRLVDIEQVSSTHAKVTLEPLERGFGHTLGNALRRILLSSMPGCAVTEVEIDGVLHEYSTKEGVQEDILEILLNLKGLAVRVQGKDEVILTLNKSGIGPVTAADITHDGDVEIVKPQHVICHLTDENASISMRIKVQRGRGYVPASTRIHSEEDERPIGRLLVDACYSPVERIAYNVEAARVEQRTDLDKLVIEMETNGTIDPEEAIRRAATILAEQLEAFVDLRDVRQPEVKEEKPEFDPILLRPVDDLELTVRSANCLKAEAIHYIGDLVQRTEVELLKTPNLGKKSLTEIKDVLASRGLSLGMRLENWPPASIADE
Sequence (P0A800 whole entry partner): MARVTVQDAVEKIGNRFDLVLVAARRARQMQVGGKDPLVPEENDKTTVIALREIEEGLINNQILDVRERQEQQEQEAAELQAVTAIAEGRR
Sequence (P00579 whole entry partner): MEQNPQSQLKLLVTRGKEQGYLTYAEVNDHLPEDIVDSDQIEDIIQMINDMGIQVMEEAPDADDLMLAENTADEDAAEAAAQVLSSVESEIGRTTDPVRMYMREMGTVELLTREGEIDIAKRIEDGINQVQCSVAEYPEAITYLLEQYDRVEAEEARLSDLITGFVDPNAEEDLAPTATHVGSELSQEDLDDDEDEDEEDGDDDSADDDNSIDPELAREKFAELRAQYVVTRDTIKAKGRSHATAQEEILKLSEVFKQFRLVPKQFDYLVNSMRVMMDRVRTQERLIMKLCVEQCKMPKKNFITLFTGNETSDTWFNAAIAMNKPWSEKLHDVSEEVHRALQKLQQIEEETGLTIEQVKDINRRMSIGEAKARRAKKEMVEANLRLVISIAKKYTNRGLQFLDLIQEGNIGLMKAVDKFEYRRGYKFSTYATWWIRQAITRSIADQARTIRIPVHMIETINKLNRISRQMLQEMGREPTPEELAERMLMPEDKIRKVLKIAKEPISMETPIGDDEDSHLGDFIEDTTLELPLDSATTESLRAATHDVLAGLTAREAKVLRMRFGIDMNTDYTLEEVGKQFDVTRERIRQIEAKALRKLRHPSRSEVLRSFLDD
measurement_type: IC50

# count of solved cases: 5
{"compound": "NS(=O)(=O)c1ccc(CCNc2ccc(C(=NO)Nc3cccc(Cl)c3)cc2C(F)(F)F)cc1 [Compound 114]", "IC50": "< 10 µM"}
{"compound": "Nc1cc(/C(=N/O)Nc2cccc(Cl)c2)cc(C(F)(F)F)c1F [Compound 116]", "IC50": "< 10 µM"}
{"compound": "ON=C(Nc1cccc(Cl)c1)c1ccc(NCCN2CCNCC2)c(C(F)(F)F)c1 [Compound 112]", "IC50": "10 to 50 µM"}
{"compound": "O=C(CSc1ccccc1)Nc1cc(NC(=O)Nc2ccc(Cl)c(C(F)(F)F)c2)cc(C(F)(F)F)c1 [Compound 120]", "IC50": "> 50 µM"}
{"compound": "CON=C1CCN(c2ccc(C(=NO)Nc3cccc(Cl)c3)cc2C(F)(F)F)C1 [Compound 110]", "IC50": "> 50 µM"}

## Task Any idea what IC50 was measured for OCCNc1ccc(C(=NO)Nc2cccc(Cl)c2)cc1C(F)(F)F [Compound 111] ?
## Result 10 to 50 µM

## Task Same thing, different compound: [N-]=[N+]=Nc1cc(/C(=N/O)Nc2cccc(Cl)c2)cc(C(F)(F)F)c1F [Compound 115]
## Result > 50 µM

## Task Same thing, different compound: ON=C(Nc1cccc(Cl)c1)c1ccc(NCCc2ccc(O)cc2)c(C(F)(F)F)c1 [Compound 113]
## Result 10 to 50 µM

## Task Same thing, different compound: ON=C1CCN(c2ccc(C(=NO)Nc3cccc(Cl)c3)cc2C(F)(F)F)C1 [Compound 109]
## Result 10 to 50 µM

----------
The compounds listed here are annotated with their MIC.
test system: S. aureus; assay: MIC determination, S. aureus; format: cell-based; conditions: Staphylococcus aureus; Table 1; MIC, 16 hours at 37° C. in LB medium; read-out: S. au (bacterial MIC)

{"sample_smiles": "O=[N+]([O-])c1cc(C(=NO)Nc2ccccc2)ccc1Cl", "MIC": "> 125 µM"}
{"sample_smiles": "ON=C(Nc1cccc(F)c1)c1cccc(C(F)(F)F)c1", "MIC": "40 to 125 µM"}

## Task Any idea what MIC was measured for ON=C(Nc1ccccc1)c1ccc(Cl)c(C(F)(F)F)c1 ?
## Result < 40 µM

----------
The molecules listed here are annotated with their IC50.
biological target: RNA-pol S. aureus (Staphylococcus aureus, UniProt P47768+Q2G0N5); assay: RNA polymerase inhibition assay (S. aureus enzyme); format: biochemical; details: Table 2; read-out: RNA-pol IC50 (μM) S. aureus

## Task Any idea what IC50 was measured for O=C(Nc1cc(N2CCCC2)cc(C(F)(F)F)c1)Nc1ccc(Cl)c(C(F)(F)F)c1 ?
## Result < 10 µM

## Task Same thing, different molecule: O=C(Nc1cc(N2CCOCC2)cc(C(F)(F)F)c1)Nc1ccc(Cl)c(C(F)(F)F)c1
## Result 10 to 50 µM

## Task Same thing, different molecule: COc1cc(NC(=O)CNc2ccc(Cl)c(C(F)(F)F)c2)cc(C(F)(F)F)c1
## Result > 50 µM

## Task Same thing, different molecule: O=C(Nc1cc(O)cc(C(F)(F)F)c1)Nc1ccc(Cl)c(C(F)(F)F)c1
## Result 10 to 50 µM

## Task Same thing, different molecule: O=C(CSc1ccccc1)Nc1cc(NC(=O)Nc2ccc(Cl)c(C(F)(F)F)c2)cc(C(F)(F)F)c1
## Result 10 to 50 µM

## Task Same thing, different molecule: O=C(Nc1ccc(Cl)c(C(F)(F)F)c1)OCc1cc(-n2cccc2)cc(C(F)(F)F)c1
## Result 10 to 50 µM

## Task Same thing, different molecule: O=C(Nc1cc(N2CCOC2=O)cc(C(F)(F)F)c1)Nc1ccc(Cl)c(C(F)(F)F)c1
## Result < 10 µM

## Task Same thing, different molecule: Nc1cc(NC(=O)Nc2ccc(Cl)c(C(F)(F)F)c2)cc(C(F)(F)F)c1
## Result > 50 µM

## Task Same thing, different molecule: O=C(Nc1cc(NS(=O)(=O)c2ccc(C(F)(F)F)cc2)cc(C(F)(F)F)c1)Nc1ccc(Cl)c(C(F)(F)F)c1
## Result 10 to 50 µM
